assay: Spectroscopic properties of the BDM library (absorbance and emission maxima); assay type: physicochemical
Measurement Name: λmax (ABS) (nm)

>  <Structure Smiles String>
COc1cc(OC)c(OC)cc1/C=C/C1=[N+]2C(=C(CCN)c3cccn3[B-]2(F)F)C(C)=C1

>  <Measurement Unit>
nm

>  <Value Measured>
578

$$$$
>  <Structure Smiles String>
CC1=CC(/C=C/c2cc(F)ccc2O)=[N+]2C1=C(CCN)c1cccn1[B-]2(F)F

>  <Measurement Unit>
nm

>  <Value Measured>
563

$$$$
>  <Structure Smiles String>
CC1=CC(/C=C/c2ccc(N(C)CCO)cc2)=[N+]2C1=C(CCN)c1cccn1[B-]2(F)F

>  <Measurement Unit>
nm

>  <Value Measured>
614

$$$$
>  <Structure Smiles String>
COc1ccc(/C=C/C2=[N+]3C(=C(CCN)c4cccn4[B-]3(F)F)C(C)=C2)cc1OC

>  <Measurement Unit>
nm

>  <Value Measured>
567

$$$$
>  <Structure Smiles String>
CC1=CC(/C=C/c2cccc(O)c2Cl)=[N+]2C1=C(CCN)c1cccn1[B-]2(F)F

>  <Measurement Unit>
nm

>  <Value Measured>
556

$$$$
>  <Structure Smiles String>
COc1cc(/C=C/c2cc(C)c3n2[B-](F)(F)[N+]2=CC=CC2=C3CCN)cc(OC)c1OC

>  <Measurement Unit>
nm

>  <Value Measured>
561

$$$$
>  <Structure Smiles String>
COc1c(Br)cc(Br)cc1/C=C/C1=[N+]2C(=C(CCN)c3cccn3[B-]2(F)F)C(C)=C1

>  <Measurement Unit>
nm

>  <Value Measured>
560

$$$$
>  <Structure Smiles String>
CC1=CC(/C=C/c2ccc(OC(C)(C)C)cc2)=[N+]2C1=C(CCN)c1cccn1[B-]2(F)F

>  <Measurement Unit>
nm

>  <Value Measured>
560

$$$$
>  <Structure Smiles String>
COc1cc(Br)cc(/C=C/C2=[N+]3C(=C(CCN)c4cccn4[B-]3(F)F)C(C)=C2)c1OC

>  <Measurement Unit>
nm

>  <Value Measured>
557

$$$$
>  <Structure Smiles String>
COc1cccc(Oc2ccc(/C=C/C3=[N+]4C(=C(CCN)c5cccn5[B-]4(F)F)C(C)=C3)cc2)c1

>  <Measurement Unit>
nm

>  <Value Measured>
559

$$$$
>  <Structure Smiles String>
COc1ccccc1/C=C/C1=[N+]2C(=C(CCN)c3cccn3[B-]2(F)F)C(C)=C1

>  <Measurement Unit>
nm

>  <Value Measured>
559

$$$$
>  <Structure Smiles String>
COc1cc(/C=C/C2=[N+]3C(=C(CCN)c4cccn4[B-]3(F)F)C(C)=C2)cc(O)c1OC

>  <Measurement Unit>
nm

>  <Value Measured>
564

$$$$
>  <Structure Smiles String>
COc1cccc(/C=C/C2=[N+]3C(=C(CCN)c4cccn4[B-]3(F)F)C(C)=C2)c1

>  <Measurement Unit>
nm

>  <Value Measured>
553

$$$$
